- SYSTEM NAME: human Y4 receptor (human, UniProt P50391 1-375)
- Sequence (P50391 whole entry): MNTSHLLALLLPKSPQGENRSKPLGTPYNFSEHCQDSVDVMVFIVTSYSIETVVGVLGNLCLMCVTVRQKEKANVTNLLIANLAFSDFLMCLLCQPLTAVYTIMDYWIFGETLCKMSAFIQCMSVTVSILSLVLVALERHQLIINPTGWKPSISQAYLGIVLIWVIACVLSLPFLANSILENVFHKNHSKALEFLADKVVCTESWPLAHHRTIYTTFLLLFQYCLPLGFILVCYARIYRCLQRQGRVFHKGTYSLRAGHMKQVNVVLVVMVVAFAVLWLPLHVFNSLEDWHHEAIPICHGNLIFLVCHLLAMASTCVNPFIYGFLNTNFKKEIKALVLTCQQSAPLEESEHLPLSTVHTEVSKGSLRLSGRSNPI
- EXPERIMENTAL DETAILS: 125I-PP displacement
No end group written: not given here.
Binned IC50; ranges: one = under 0.07 nM, two = from 0.07 nM up to 0.09 nM, three = 0.09 nM and over

[[record]]
binder = "GAPLEPTYPGDNATPEQKAKYAAELRRYINKLTRPRY [4060204]"
label_class = "two"

[[record]]
binder = "AAPLEPEAPGDNATPEQMAKYAAALRRYINKLTRPRY [4059976]"
label_class = "three"

[[record]]
binder = "PAPLEPHYPGDNATPEQLARYYSELRRYINKLTRPRY [4059966]"
label_class = "one"

[[record]]
binder = "GAPLEPHYPGDNATPEEMAKYAAELRRYINKVTRPRY [4059947]"
label_class = "one"

[[record]]
binder = "GAPLEPRYPGDNATPEEMAKYAAELRRYINKLTRPRY [4060144]"
label_class = "three"

[[record]]
binder = "PAPLEPHYPGDNATPEEMAKYAAELRRYLNKLTRPRY [4059951]"
label_class = "three"

[[record]]
binder = "PAPLEPHYPGDNATPEEMAKYATELRRYINKLTRPRY [4059934]"
label_class = "three"

[[record]]
binder = "GAPLEPHYPGDNATPEEMAKYAAELRRYINKITRPRY [4059942]"
label_class = "two"

[[record]]
binder = "GAPLEPHAPGDNATPEEMAKYAAELRRYINKLTRPRY (ends and bridges not checked) [compound of SEQ ID NO:1090 (code 4059937)]"
label_class = "three"


// provenance: patent US20100279930A1
